The measured values listed here are drawn from patent US8815902B2.

assay system: acetylcholine muscarinic M1 receptor (hM1) (Homo sapiens)
Construct: expressed in transfected cells; host or cells: CHOnfat cells (CHO, NFAT reporter background), Geneticin-selected; b186 also calls them CHOK1/hM1
Sequence (P11229 whole entry): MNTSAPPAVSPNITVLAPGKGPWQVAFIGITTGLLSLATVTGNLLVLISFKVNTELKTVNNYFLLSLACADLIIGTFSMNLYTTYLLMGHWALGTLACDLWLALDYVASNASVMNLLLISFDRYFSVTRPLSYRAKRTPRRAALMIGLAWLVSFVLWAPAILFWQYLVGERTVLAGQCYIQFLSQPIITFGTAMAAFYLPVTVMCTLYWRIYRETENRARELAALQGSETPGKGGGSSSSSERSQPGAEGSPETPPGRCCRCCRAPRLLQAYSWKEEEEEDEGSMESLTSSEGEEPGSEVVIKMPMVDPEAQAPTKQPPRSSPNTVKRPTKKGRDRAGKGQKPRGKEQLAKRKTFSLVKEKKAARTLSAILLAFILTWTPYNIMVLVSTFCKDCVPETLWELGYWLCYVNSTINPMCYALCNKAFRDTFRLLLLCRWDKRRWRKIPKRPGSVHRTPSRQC
protocol notes: muscarinic FLIPR assay: intracellular calcium in CHOnfat/hM1 cells, potentiation of EC20 acetylcholine
Assay type: cell-based
experimental setup: Table 2, EC20 acetylcholine (3 nM final), read-out: M1 IP (inflection point)
pEC50: −log10 of the molar value.
Please note: Satisfied applies when pEC50 is 7 or greater, and Not satisfied applies otherwise.

>  <compound string>
CC(=O)N1CC=C(Cc2cc(C(=O)N[C@H]3CCOC[C@@H]3O)nc3c2CCCC3)CC1

>  <assay system>
acetylcholine muscarinic M1 receptor (hM1) (Homo sapiens)

>  <class>
Not satisfied

$$$$

Inquiry: Hi, just wondering whether Cn1cc(-c2ccc(Cc3cc(C(=O)N[C@H]4CCOC[C@@H]4O)nc4c3CCCC4)cn2)cn1 shows pEC50 of 7 or higher.
Reply text: Satisfied
